molecular target: PI 3-kinase beta (Homo sapiens, UniProt P42338); experiment: Kinase Glo Luminescent Kinase Assay (Kglo), assay B; type: biochemical; conditions: read-out: Assay B PI3Kβ IC50
Sequence (P42338 whole entry): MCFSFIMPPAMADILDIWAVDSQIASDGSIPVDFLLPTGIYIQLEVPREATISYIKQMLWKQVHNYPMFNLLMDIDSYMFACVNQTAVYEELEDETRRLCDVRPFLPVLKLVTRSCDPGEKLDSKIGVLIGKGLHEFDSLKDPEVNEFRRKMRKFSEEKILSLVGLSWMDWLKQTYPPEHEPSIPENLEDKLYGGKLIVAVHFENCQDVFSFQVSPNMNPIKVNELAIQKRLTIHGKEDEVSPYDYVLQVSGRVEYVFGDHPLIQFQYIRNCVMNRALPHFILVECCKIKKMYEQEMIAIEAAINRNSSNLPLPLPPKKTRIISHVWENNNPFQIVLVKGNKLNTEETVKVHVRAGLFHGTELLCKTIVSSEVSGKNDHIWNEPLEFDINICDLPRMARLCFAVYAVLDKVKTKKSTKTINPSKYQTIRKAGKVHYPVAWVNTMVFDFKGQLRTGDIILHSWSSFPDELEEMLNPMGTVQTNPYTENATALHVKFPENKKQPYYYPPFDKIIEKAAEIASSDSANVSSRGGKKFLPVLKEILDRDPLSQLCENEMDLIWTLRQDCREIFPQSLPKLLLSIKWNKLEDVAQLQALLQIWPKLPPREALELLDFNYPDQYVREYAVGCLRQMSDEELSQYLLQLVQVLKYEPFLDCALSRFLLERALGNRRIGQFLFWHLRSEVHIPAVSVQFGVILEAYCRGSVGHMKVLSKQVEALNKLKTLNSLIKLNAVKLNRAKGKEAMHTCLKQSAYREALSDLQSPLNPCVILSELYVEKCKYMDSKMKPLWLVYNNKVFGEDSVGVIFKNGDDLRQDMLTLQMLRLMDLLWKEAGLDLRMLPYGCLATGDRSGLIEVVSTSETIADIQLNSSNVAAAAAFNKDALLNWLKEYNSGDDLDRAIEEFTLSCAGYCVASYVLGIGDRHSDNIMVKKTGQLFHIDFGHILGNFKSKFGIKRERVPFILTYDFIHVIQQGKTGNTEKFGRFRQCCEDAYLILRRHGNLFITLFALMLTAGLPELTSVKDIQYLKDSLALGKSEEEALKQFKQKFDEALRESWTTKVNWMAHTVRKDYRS
Sequence (P27986 461-568 partner): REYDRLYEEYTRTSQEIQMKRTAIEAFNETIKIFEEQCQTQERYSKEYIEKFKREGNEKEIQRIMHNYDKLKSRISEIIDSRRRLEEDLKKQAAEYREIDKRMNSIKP
So I've got a bunch of molecules here, and I need their IC50 values.

Input: Fill blank: measured IC50 of the molecule Cc1cc(-c2nc(-c3cc(S(=O)(=O)NC[C@@H]4CCNC4)ccc3C)cnc2N)ccn1 is ____.
Output: > 9.1 µM

Input: What about this molecule? Cc1ccc(S(=O)(=O)NCCC(C)(C)O)cc1-c1cnc(N)c(-c2cccnc2)n1
Output: > 9.1 µM

Input: What about this molecule? Cc1ccc(S(=O)(=O)NCC2(CO)COC2)cc1-c1cnc(N)c(-n2cncn2)n1
Output: 1.9 µM

Input: What about this molecule? Cc1ccc(S(=O)(=O)NCCC(C)(C)O)cc1-c1cnc(N)c(-c2ccnc(F)c2)n1
Output: 6.47 µM

Input: What about this molecule? Cc1ccc(S(=O)(=O)NCCC(C)(C)O)cc1-c1cnc(N)c(-c2cncnc2)n1
Output: > 9.1 µM

Input: What about this molecule? Cc1cc(-c2nc(-c3cc(S(=O)(=O)NC4CCC(C)(O)CC4)ccc3C)cnc2N)ccn1 (centres unmarked)
Output: 5.11 µM

Input: What about this molecule? Cc1ccc(S(=O)(=O)NCCC(C)(C)O)cc1-c1cnc(N)c(-c2cc(C(F)(F)F)nn2C)n1
Output: > 9.1 µM

Input: What about this molecule? Cc1nc(C)c(-c2nc(-c3cc(S(=O)(=O)NCC(C)(C)O)ccc3C)cnc2N)s1
Output: > 10 µM
